test: viability of PTEN-deleted HCT116 cells – cell-based, HCT116 PTEN knockout, dose response (AID 1047);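 note: HCT116 colon tumor cells with PTEN knocked out; cells exposed to compound for 60 hours before readout; potency for loss of cell viability measured by luminescence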
Format: functional
Active and inactive are the calls of the source. The rule behind the calls is not given here.
metric: EC50

See these solved cases before continuing.
Cc1cc2ncn(/N=C/c3ccc([N+](=O)[O-])o3)c2cc1C	6.44 µM (active)
O=C1C(Nc2ccccc2)=C/C(=N/S(=O)(=O)c2cccs2)c2ccccc21	4.13 µM (active)
Oc1nc2cc3c(cc2cc1C(c1nnnn1C1CCCC1)N1CCSCC1)OCCO3 (stereo not drawn)	28.9 µM (active)

(Q) Form field: reported EC50 of CN(C)S(=O)(=O)c1ccc(C(=O)Nc2nc(-c3cccs3)cs2)cc1
(A) 79.7 µM (active)

(Q) Form field: reported EC50 of Fc1cnc(N2CCc3ccccc32)nc1N1CCc2ccccc21
(A) 30 µM (active)

(Q) Form field: reported EC50 of O=c1c2ccccc2nc(COc2ccccc2)n1/N=C/c1c[nH]nc1-c1ccccc1
(A) 19.6 µM (active)

(Q) Form field: reported EC50 of C=C(C)COc1ccc2c(C)c(CC(=O)OC)c(=O)oc2c1C
(A) 81.2 µM (active)

(Q) Form field: reported EC50 of COc1ccc(N(C(=O)CCl)C(C(=O)NCCc2ccccc2)c2cccs2)cc1Cl (stereo not drawn)
(A) 1.48 µM (active)
